- Protocol notes: yeast display, Sf9 membrane polyspecificity reagent, FACS + sequencing; frameworks hold sequencing errors
Measurement kind: polyreactivity (PSR sort gate)

Examples from the recorded data:
QVQLVESGGGLVQAGGSLRLSCAASGTIFFFYVMGWYRQAPGKERELVAAITYSGGSTFYADSVKGRFTISRDNAKNTVYLQMNSLKPEDTAVYYCAAVYGQWTPLDPYNHWGQGTQVTVSS; low polyreactivity
QVQLVESGGGLVQAGGSLRLSCAASGRTLELYVMGWYRQAPGKERELVAAIRWGTGSTYYADSVKGRFTISRDNAKNTVYLQMNSLKPEDTAVYYCAAVLRQYYRAYDYWGQGTQVTVSS; high polyreactivity
QVQLVESGGGLVQAGGSLRLSCAASGRTFSYYAMGWYRPAPGKERELVARITYRGGRTYYADSVKGRFTISRDNAKNTVYLQMNSLKPEDTAVYYCATTSWRYGYDYWGQGTQVTVSS; high polyreactivity
QVQLVESGGGLVQAGGSLRLSCAASGFIFKRYAMGWYRQAPGKERELVAPITSNGGRTYYADSVKGRFTISRDNAKNTVYLQMNSLKPEHTAVYYCARDSQYYEQDDYWGQGTQVTVSS; high polyreactivity
QVQLVESGGGLVQAGGSLRLSCAASGRTFEYYAMGWYRQAPGKEREFVAAISRRGDSTYYADSVKGRFTISRDNAKNTVYLQMNSLKPEDTAVYYCAAKSYSARTKYYYWGQGTQVTVSS; high polyreactivity

Annotate the sequence `QVQLVESGGGLVQAGGSLRLSCSASERTFYWNTMGWYRQAPGKERELVAAIRTSGGSTYYADSVKGRFTISRDNAKNTVYLQMNSLKPEDTAVYYCAAKYRNYNTRYDYWGQGTQVTVSS` with its measured polyreactivity (PSR sort gate). high polyreactivity

Annotate the sequence `QVQLVESGGGLVQAGGSLRLSCAASGFTFYKYVMGWYRQAPGKERELVAAITTSGGSTYYADSVKGRFTISRDNAKNTVYLQMNSLKPEDTAVYYCNALARWWAYYDYGYWGQGTQVTVSS` with its measured polyreactivity (PSR sort gate). low polyreactivity

Annotate the sequence `QVQLVESGGGLVQAGGSLRLSCAASGRTFSYYAMGWYRQAPGKERELVAAISSGGSTNYADSVKGRFTISRDNAKNTVYLQMNSLKPEDPAFYYCANSSIWGSGRVRWVTYYFWGQGTQVTVSS` with its measured polyreactivity (PSR sort gate). low polyreactivity

Annotate the sequence `QVQLVESGGGLVQAGGSLRLSCAASGFTFFNYGRGWSRQAHGKERELVAAISSNGGLTYYADSVKGRFTISRDNAKNTVYLQMNSLKPEDTAVYYCATLYYGRVDYDYWGQGTQVTVSS` with its measured polyreactivity (PSR sort gate). high polyreactivity

Annotate the sequence `QVQLVESGGGLVQAGGSLRLSCAASGRTFSSYAMGWYRQAPGKERELVADINRSGGSTYYADSVKGRFTISRDNAKNTVYLQMNSLKPEDTAVYYCNVRIWPWYGYDYWGQGTQVTVSS` with its measured polyreactivity (PSR sort gate). low polyreactivity

Annotate the sequence `QVQLVESGGGLVQAGGSHRLSSAASGTTFYGNAMGWYRQAPGKERELVAAISQGGGRTYYADSVKGRFTISRDIAKNTVYLQMISLKPEDTAVYYCAADVWWYRLDFDYWGQGTQVTVSS` with its measured polyreactivity (PSR sort gate). high polyreactivity

Reference source: the nanobody polyreactivity screen of Harvey et al. (2022)
